# credit: patent US12162888B2

Collected pIC50 values appear next to each entry.
- experimental-target: USP25 (USP25-His6, Boston Biochem E-546) (Homo sapiens)
- Construct: His6 (C); purchased Boston Biochem E-546
- Sequence (Q9UHP3 1-1055): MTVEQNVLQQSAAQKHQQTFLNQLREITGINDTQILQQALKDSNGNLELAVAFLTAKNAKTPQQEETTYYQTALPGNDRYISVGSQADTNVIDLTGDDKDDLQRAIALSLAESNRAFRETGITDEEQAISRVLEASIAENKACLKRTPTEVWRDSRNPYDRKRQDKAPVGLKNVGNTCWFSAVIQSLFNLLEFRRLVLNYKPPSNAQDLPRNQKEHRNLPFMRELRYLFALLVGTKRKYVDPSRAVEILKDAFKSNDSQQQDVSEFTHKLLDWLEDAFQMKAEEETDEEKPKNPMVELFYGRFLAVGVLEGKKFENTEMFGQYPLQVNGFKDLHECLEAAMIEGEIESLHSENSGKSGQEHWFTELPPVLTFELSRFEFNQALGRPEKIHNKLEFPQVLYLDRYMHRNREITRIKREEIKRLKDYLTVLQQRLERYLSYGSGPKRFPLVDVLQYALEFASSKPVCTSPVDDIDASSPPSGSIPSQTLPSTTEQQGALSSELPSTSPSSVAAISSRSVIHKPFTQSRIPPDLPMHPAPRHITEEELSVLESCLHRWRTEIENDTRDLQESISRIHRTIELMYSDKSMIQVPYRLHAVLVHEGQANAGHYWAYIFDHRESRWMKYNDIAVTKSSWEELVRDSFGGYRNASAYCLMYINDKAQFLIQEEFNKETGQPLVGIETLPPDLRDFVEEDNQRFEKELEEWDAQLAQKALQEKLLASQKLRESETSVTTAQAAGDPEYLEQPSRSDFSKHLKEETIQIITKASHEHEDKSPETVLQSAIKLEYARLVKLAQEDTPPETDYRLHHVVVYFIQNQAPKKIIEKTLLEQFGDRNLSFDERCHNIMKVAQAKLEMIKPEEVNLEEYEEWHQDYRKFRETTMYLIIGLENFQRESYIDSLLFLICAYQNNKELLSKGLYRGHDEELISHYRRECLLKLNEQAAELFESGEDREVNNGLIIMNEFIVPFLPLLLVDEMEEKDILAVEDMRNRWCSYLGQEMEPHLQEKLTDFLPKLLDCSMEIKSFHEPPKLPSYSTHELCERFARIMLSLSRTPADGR
- test-protocol: Ubiquitin-Rhodamine 110 Assay for USP25 Activity, Example A-3
- Type: biochemical
- condition-description: Ubiquitin-Rhodamine 110 assay, Example A-3; read-out: USP25 A-3 IC50 range
pIC50: −log10 of the molar value.

{"molecule": "Cc1ccc2c(N)c(C(=O)N[C@H]3CCc4nc(N5C[C@H](C(F)F)[C@@H](N)C5)ncc4C3)sc2n1", "observed-property": "pIC50", "result": "< 5.70"}

**Query** Hello, I am looking for reported pIC50 with USP25 (USP25-His6, Boston Biochem E-546) (Homo sapiens) for Cc1ccc2c(N)c(C(=O)N[C@H]3CCc4nc(N5C[C@@H](N)[C@@]6(CCOC6)C5)ccc4C3)sc2n1 (single isomer, unassigned) . Could you help?
**Result** < 5.70

**Query** Hello, I am looking for reported pIC50 with USP25 (USP25-His6, Boston Biochem E-546) (Homo sapiens) for CN[C@H]1CN(c2ccc3c(n2)CC[C@H](NC(=O)c2sc4nc(C)ccc4c2N)C3)C[C@@H]1C(F)F . Could you help?
**Result** < 5.70

**Query** Hello, I am looking for reported pIC50 with USP25 (USP25-His6, Boston Biochem E-546) (Homo sapiens) for Cc1ccc2c(N)c(C(=O)N[C@H]3CCc4nc(N5CC6(C[C@@H](N)CO6)C5)ccc4C3)sc2n1 . Could you help?
**Result** 5.70 to 6.70

**Query** Hello, I am looking for reported pIC50 with USP25 (USP25-His6, Boston Biochem E-546) (Homo sapiens) for Cc1cnc2c(N)c(C(=O)N[C@H]3CCc4c(C#N)c(N5CCNCC5)cc(F)c4C3)sc2n1 (single isomer, unassigned) . Could you help?
**Result** < 5.70

**Query** Hello, I am looking for reported pIC50 with USP25 (USP25-His6, Boston Biochem E-546) (Homo sapiens) for Cc1nc2sc(C(=O)N[C@H]3CCc4c(C#N)c(N5CCNCC5)cc(F)c4C3)c(N)c2s1 (single isomer, unassigned) . Could you help?
**Result** 5.70 to 6.70

**Query** Hello, I am looking for reported pIC50 with USP25 (USP25-His6, Boston Biochem E-546) (Homo sapiens) for Cc1ccc2c(N)c(C(=O)N[C@H]3CCc4c(C#N)c(N5CC6CCC(C5)N6)cc(F)c4C3)sc2n1 (single isomer, unassigned) . Could you help?
**Result** 7.30 to 9.00

**Query** Hello, I am looking for reported pIC50 with USP25 (USP25-His6, Boston Biochem E-546) (Homo sapiens) for Cc1ccc2c(N)c(C(=O)N[C@H]3CCc4nc(N5CC6(C[C@H](N)CO6)C5)ccc4C3)sc2n1 . Could you help?
**Result** 5.70 to 6.70

**Query** Hello, I am looking for reported pIC50 with USP25 (USP25-His6, Boston Biochem E-546) (Homo sapiens) for Cc1ccc2c(N)c(C(=O)N[C@H]3COc4cc(N5CC6CCC(C5)N6)c(F)cc4C3)sc2n1 . Could you help?
**Result** 6.70 to 7.30

**Query** Hello, I am looking for reported pIC50 with USP25 (USP25-His6, Boston Biochem E-546) (Homo sapiens) for Cc1cnc2c(N)c(C(=O)N[C@H]3CCc4c(ccc(N5CCNCC5)c4F)C3)sc2n1 (single isomer, unassigned) . Could you help?
**Result** < 5.70
